B1: POU domain, class 4, transcription factor 3, residues 185 to 256; numbered along this chain, Q15319 (parent)
chain: RELEAFAERFKQRRIKLGVTQADVGAALANLKIPGVGSLSQSTICRFESLTLSHNNMIALKPVLQAWLEEAE

Variants of: B1
Test: abundance fitness (aPCA) (normalised: wild type 0, dead -1); higher = more abundant; growth selection in yeast, the domain comes from the species named
Settings: Homo sapiens
So I've got a bunch of variants here, and I need their abundance fitness values.
Keep it simple and answer with nothing but the number.

The variant identified as N30Q registered its abundance fitness at -0.022

The variant identified as P34R registered its abundance fitness at -0.353

The variant identified as V36F registered its abundance fitness at -0.043

The variant identified as S40Y registered its abundance fitness at -0.422

The variant identified as G25S registered its abundance fitness at -0.13

The variant identified as K32E registered its abundance fitness at 0.034

The variant identified as G37W registered its abundance fitness at -0.669

The variant identified as K32S registered its abundance fitness at -0.031

The variant identified as V24K registered its abundance fitness at -0.937

The variant identified as V24Q registered its abundance fitness at -0.825

The variant identified as L39S registered its abundance fitness at -0.109

The variant identified as K32R registered its abundance fitness at -0.039

The variant identified as P34S registered its abundance fitness at -0.124

The variant identified as S49C registered its abundance fitness at -0.127

The variant identified as V36M registered its abundance fitness at 0.044

The variant identified as L28Y registered its abundance fitness at -0.49

The variant identified as K32L registered its abundance fitness at -0.146

The variant identified as C45Y registered its abundance fitness at -0.01

The variant identified as V24T registered its abundance fitness at -0.565

The variant identified as T43D registered its abundance fitness at -0.29

The variant identified as C45M registered its abundance fitness at -0.048

The variant identified as T43V registered its abundance fitness at -0.031

The variant identified as V36W registered its abundance fitness at -0.091

The variant identified as D23M registered its abundance fitness at -0.135

The variant identified as S49K registered its abundance fitness at -0.039

The variant identified as K61T registered its abundance fitness at -0.061

The variant identified as F47G registered its abundance fitness at -1.01

The variant identified as D23T registered its abundance fitness at -0.307

The variant identified as K32W registered its abundance fitness at -0.162

The variant identified as S40Q registered its abundance fitness at -0.287

The variant identified as T43A registered its abundance fitness at -0.148

The variant identified as K32I registered its abundance fitness at -0.049

The variant identified as L39P registered its abundance fitness at 0.054

The variant identified as S40I registered its abundance fitness at -0.664
